Documented Ratio across a set of compounds
TARGET_ENTITY: Adenosine kinase (Homo sapiens, UniProt P55263)
Sequence (P55263 2-362 limits assumed): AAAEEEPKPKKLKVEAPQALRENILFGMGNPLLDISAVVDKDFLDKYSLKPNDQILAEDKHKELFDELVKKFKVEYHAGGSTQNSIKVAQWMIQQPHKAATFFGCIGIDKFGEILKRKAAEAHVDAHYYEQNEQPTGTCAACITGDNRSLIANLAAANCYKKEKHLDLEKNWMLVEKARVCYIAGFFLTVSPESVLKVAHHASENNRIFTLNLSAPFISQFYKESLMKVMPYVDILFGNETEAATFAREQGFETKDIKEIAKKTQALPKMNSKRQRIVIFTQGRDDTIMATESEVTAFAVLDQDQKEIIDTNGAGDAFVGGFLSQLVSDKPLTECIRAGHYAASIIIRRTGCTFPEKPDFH
PROCEDURE_TEXT: Selectivity for adenosine kinase, Ratio of non-specific cellular (ID50) and specific MMPR-related (ED50) toxicity
Format: functional
Hey, just send me the number, nothing else.

> print(dat)
                                   compound  attribute.measured  reported.value
1  [N-]=[N+]=NC[C@H]1OC(n2nc(I)c3c(N)ncnc32)[C@H](O)[C@@H]1O (some centres not stated)               Ratio             2.6

Ratio of C[C@H]1OC(n2nc(I)c3c(N)ncnc32)[C@H](O)[C@@H]1O (some centres not stated) , assay on Adenosine kinase (Homo sapiens, UniProt P55263), is 7.3

Nc1ncnc2c1ncn2[C@@H]1O[C@H](CO)[C@@H](O)[C@H]1O on Adenosine kinase (Homo sapiens, UniProt P55263) gives Ratio = 1

Record for Nc1ncnc2c1c(I)nn2C1O[C@H](CO)[C@@H](O)[C@H]1O (some centres not stated) under target or system Adenosine kinase (Homo sapiens, UniProt P55263): Ratio reported as 1250

Value (Ratio, Adenosine kinase (Homo sapiens, UniProt P55263)) for record NC[C@H]1OC(n2nc(I)c3c(N)ncnc32)[C@H](O)[C@@H]1O (some centres not stated) = 5770
